System: HT-1080-FAP xenografts
measurementNotes: Small animal PET imaging
Assay type: in vivo, BALB/c nu/nu mice
protocolConditions: HT1080-FAP transplanted nude mice, 22 min
Method: Eight-week-old BALB/c nu/nu mice (Charles River) were subcutaneously inoculated with 5 × 10^6 HT-1080-FAP cells. The subcutaneous xenografts were grown at the flanks of the mice. Xenografts were grown to a tumor diameter of 10–15 mm. Mice were anesthetized using isoflurane inhalation. […] Quantification was based on ROI analysis and expressed as SUV. […]
Exercise: state measured Tumor Uptake (SUVmean) 22 min for each of the molecules provided.
Give your answer as a number; write no unit.

Form field Tumor Uptake (SUVmean) 22 min, entry N#C[C@@H]1CC(F)(F)CN1C(=O)CNC(=O)c1ccnc2ccc(OCCCN3CCN(C(=O)[C@H](CC(C(=O)O)C(=O)O)NC(=O)CN4CCN(CC(=O)O)CCN(CC(=O)O)CC4)CC3)cc12 : 2.06

Memo: CN(CCCN1CCN(C(=O)CN2CCN(CC(=O)O)CCN(CC(=O)O)CC2)CC1)c1ccc2nccc(C(=O)NCC(=O)N3CC(F)(F)C[C@H]3C#N)c2c1 , reported Tumor Uptake (SUVmean) 22 min: 0.55

Briefly, Tumor Uptake (SUVmean) 22 min measured for CN(CCCN1CCN(C(=O)c2ccc([N+](C)(C)C)nc2)CC1)c1ccc2nccc(C(=O)NCC(=O)N3CC(F)(F)C[C@H]3C#N)c2c1 : 0.15

Field Tumor Uptake (SUVmean) 22 min (entry C[N+](C)(C)c1ccc(C(=O)N2CCN(CCCOc3ccc4nccc(C(=O)NCC(=O)N5CC(F)(F)C[C@H]5C#N)c4c3)CC2)cn1 ) reads 0.44

Looking up N#C[C@@H]1CC(F)(F)CN1C(=O)CNC(=O)c1ccnc2ccc(OCCCN3CCN(C(=O)CN4CCN(CC(=O)O)CCN(CC(=O)O)CC4)CC3)cc12 , I found its Tumor Uptake (SUVmean) 22 min recorded as 1.0

N#C[C@@H]1CCCN1C(=O)CNC(=O)c1ccnc2ccc(OCCCN3CCN(C(=O)CN4CCN(CC(=O)O)CCN(CC(=O)O)CC4)CC3)cc12 has a reported Tumor Uptake (SUVmean) 22 min of 1.81

---

Record form. Attribute: Tumor Uptake (SUVmean) 8 min. Fill in for each entry.
System: HT-1080-FAP xenografts
measurementNotes: Small animal PET imaging
Assay type: in vivo, BALB/c nu/nu mice
protocolConditions: HT1080-FAP transplanted nude mice, 8 min
In your answer, state the number alone without any accompanying words.

Short answer for N#C[C@@H]1CCCN1C(=O)CNC(=O)c1ccnc2ccc(OCCCN3CCN(C(=O)CN4CCN(CC(=O)O)CCN(CC(=O)O)CC4)CC3)cc12 : Tumor Uptake (SUVmean) 8 min was 1.58

Reported Tumor Uptake (SUVmean) 8 min ( N#C[C@@H]1CC(F)(F)CN1C(=O)CNC(=O)c1ccnc2ccc(OCCCN3CCN(C(=O)[C@H](CC(C(=O)O)C(=O)O)NC(=O)CN4CCN(CC(=O)O)CCN(CC(=O)O)CC4)CC3)cc12 ) = 1.55

Lab note: measured Tumor Uptake (SUVmean) 8 min of N#C[C@@H]1CC(F)(F)CN1C(=O)CNC(=O)c1ccnc2ccc(OCCCN3CCN(C(=O)CN4CCN(CC(=O)O)CCN(CC(=O)O)CC4)CC3)cc12 was 1.05

In plain terms, C[N+](C)(C)c1ccc(C(=O)N2CCN(CCCOc3ccc4nccc(C(=O)NCC(=O)N5CC(F)(F)C[C@H]5C#N)c4c3)CC2)cn1 has a documented Tumor Uptake (SUVmean) 8 min of 0.45

molecule CN(CCCN1CCN(C(=O)c2ccc([N+](C)(C)C)nc2)CC1)c1ccc2nccc(C(=O)NCC(=O)N3CC(F)(F)C[C@H]3C#N)c2c1 , Tumor Uptake (SUVmean) 8 min observed: 0.19

Per the records, this molecule ( CN(CCCN1CCN(C(=O)CN2CCN(CC(=O)O)CCN(CC(=O)O)CC2)CC1)c1ccc2nccc(C(=O)NCC(=O)N3CC(F)(F)C[C@H]3C#N)c2c1 ) has Tumor Uptake (SUVmean) 8 min equal to 0.65
